- test_method_notes: Mouse pharmacokinetics, intravenous
- Type: in vivo
- run_parameters: plasma, male CD1 mice, single intravenous 5.925 mg/kg
assay_endpoint: Cmax (ng/mL)
Numbers only, in ng/mL.

Notebook: `CC[C@H](C)[C@@H]1NC(=O)[C@H](CC(=O)O)NC(=O)[C@H](Cc2ccc(O)cc2)NC(=O)[C@H](Cc2ccccc2)NC(=O)[C@H](CC(=O)O)NC(=O)[C@H](CCC(=O)O)NC(=O)[C@@H]2CSCc3cc(cc(c3)CSC[C@H](NC(C)=O)C(=O)N[C@@H](Cc3ccc(O)cc3)C(=O)N[C@@H](CC(N)=O)C(=O)N[C@@H](CCC(=O)O)C(=O)N[C@@H](Cc3ccccc3)C(=O)NCC(=O)N2)CSC[C@@H](C(N)=O)NC1=O` , Cmax read as 15800
